These data points were gathered from patent US20250250285A1.

- System: MCF10A
- Experiment summary: IC50 on nontumorigenic epithelial breast cell MCF10A
- Test conditions: Homo sapiens, MCF-10A
Provide the reported IC50 of each item.
I'd appreciate it if you wrote the number followed by its unit.

Which IC50 is reported for this compound? C[C@H]1[C@@H](O)O[C@@H]2O[C@@]3(C)CC[C@H]4[C@H](C)CC[C@@H]1[C@@]24OO3 [DHA, dihydroartemisinin, reference compound] 5.45 µM

How about this compound: CC[C@@H](C(=O)O)[C@@H]1O[C@@H]([C@@H](C)[C@H](O)[C@H](C)C(=O)[C@H](CC)[C@H]2O[C@]3(C=C[C@@H](O)[C@]4(CC[C@@](C)([C@H]5CC[C@](O)(CC)[C@H](C)O5)O4)O3)[C@H](C)C[C@@H]2C)[C@@H](C)C[C@@H]1C [Narasin] 0.79 µM

How about this compound: C#CCN[C@@H]1C=C[C@]2(O[C@H]([C@@H](CC)C(=O)[C@@H](C)[C@@H](O)[C@H](C)[C@@H]3O[C@@H]([C@@H](CC)C(=O)OC4O[C@@H]5O[C@]6(C)CC[C@H]7[C@H](C)CC[C@@H]([C@H]4C)[C@@]57OO6)CC[C@@H]3C)[C@@H](C)C[C@H]2C)O[C@@]12CC[C@@](C)([C@H]1CC[C@](O)(CC)[C@H](C)O1)O2 (stereo partly drawn) [MA-I-062, Ironomycin-dihydroartemisinin prodrug] 2.03 µM

How about this compound: C#CCN[C@H]1C=C[C@]2(O[C@H]([C@@H](CC)C(=O)[C@@H](C)[C@@H](O)[C@H](C)[C@@H]3O[C@@H]([C@@H](CC)C(=O)OC4O[C@@H]5O[C@]6(C)CC[C@H]7[C@H](C)CC[C@@H]([C@H]4C)[C@@]57OO6)CC[C@@H]3C)[C@@H](C)C[C@H]2C)O[C@@]12CC[C@@](C)([C@H]1CC[C@](O)(CC)[C@H](C)O1)O2 (stereo partly drawn) [MA-I-096] 1.37 µM

How about this compound: CC[C@@H](C(=O)OC1O[C@@H]2O[C@]3(C)CC[C@H]4[C@H](C)CC[C@@H]([C@H]1C)[C@@]24OO3)[C@@H]1O[C@@H]([C@@H](C)[C@H](O)[C@H](C)C(=O)[C@H](CC)[C@H]2O[C@]3(C=C[C@@H](NC4CC4)[C@]4(CC[C@@](C)([C@H]5CC[C@](O)(CC)[C@H](C)O5)O4)O3)[C@H](C)C[C@@H]2C)[C@@H](C)C[C@@H]1C (stereo partly drawn) [MA-I-095] 5.24 µM

How about this compound: CC[C@@H](C(=O)[C@@H](C)[C@@H](O)[C@H](C)[C@@H]1O[C@@H]([C@@H](CC)C(=O)O)CC[C@@H]1C)[C@H]1O[C@]2(C=C[C@@H](O)[C@]3(CC[C@@](C)([C@H]4CC[C@](O)(CC)[C@H](C)O4)O3)O2)[C@H](C)C[C@@H]1C [Salinomycin] 1.13 µM
